- EXPERIMENTAL_TARGET: EP2 (Homo sapiens)
- Sequence (P43116 whole entry): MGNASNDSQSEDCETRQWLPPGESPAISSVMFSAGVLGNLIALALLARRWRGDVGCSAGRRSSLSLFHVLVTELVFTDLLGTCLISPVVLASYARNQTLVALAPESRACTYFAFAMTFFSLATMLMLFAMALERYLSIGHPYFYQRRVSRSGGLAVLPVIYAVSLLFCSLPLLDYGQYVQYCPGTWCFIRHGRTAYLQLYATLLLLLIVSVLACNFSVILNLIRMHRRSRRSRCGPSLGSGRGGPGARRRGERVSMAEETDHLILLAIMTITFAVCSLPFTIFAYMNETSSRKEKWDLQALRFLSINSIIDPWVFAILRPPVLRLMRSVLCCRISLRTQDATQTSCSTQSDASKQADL
- ASSAY_PROCEDURE: PGE2 stimulated cAMP accumulation functional assay
- EXPERIMENTAL_PARAMETERS: read-out: EC50 for inhibition of PGE2 induced cAMP generation
ENDPOINT: EC50
Number plus unit, in that order.

What does the data say about its EC50? Entry: CC(C)Oc1ccc2c(=O)c3cc(C(=O)O)ccc3oc2c1 1000 nM
